All figures here come from patent US20190284192A1.

Assay: Cassette pharmacokinetic study, intravenous or oral administration
Assay type: in vivo, female Balb/c nude mice
Conditions: female, Balb/c nude, mouse, whole blood; PO 2 mg/kg, N = 3, cassette
Protocol: Determinations of the pharmacokinetic parameters of ABBV-075 (standard control), 4009, 4018, 4026 and 4031 in femal Balb/c nude mice after intravenous or oral administration. Detailed Experimental Steps: 6 female Balb/c nude mice weighing 18-20 g were divided into two groups (3/group), after fixation, the intravenous group: 0.5 mg/kg (5 mL/kg) injected by caudal vein (N=3); the oral group: 2 mg/kg (10 mL/kg) by intragastic administration (N=3). […]
measure: log10(AUC(0-t)) (log10 of the value in ng·h/mL)
Quick note: numbers are log10 of AUC(0-t), with ng·h/mL as the unit.

Here is how some compounds turned out for log10(AUC(0-t)).
CCS(=O)(=O)Cc1ccc2c(c1)-c1cn(C)c(=O)cc1[C@H](C)N=C2c1ccc(F)cc1 [Compound 4026]    3.57
CCS(=O)(=O)Nc1ccc2c(c1)-c1cn(C)c(=O)cc1CN=C2c1ccc(F)cc1 [Compound 4018]    1.95
CCS(=O)(=O)Cc1ccc2c(c1)-c1cn(C)c(=O)cc1CN=C2c1ccc(F)cc1 [Compound 4009]    3.35

**Query** Which log10(AUC(0-t)) is listed for CCS(=O)(=O)Nc1ccc(Oc2ccc(F)cc2F)c(-c2cn(C)c(=O)c3[nH]ccc23)c1 [ABBV-075] ?
**Result** 3.06

**Query** Which log10(AUC(0-t)) is listed for CCS(=O)(=O)Nc1cc2c(cc1Cl)C(c1ccc(F)cc1)=NCc1cc(=O)n(C)cc1-2 [Compound 4031] ?
**Result** 3.52

====

target: BRD4 (BD1) (Homo sapiens, UniProt O60885); construct: Each member comprises two tandem bromodomains (BD1 and BD2) for recognizing the acetylated lysine residues; assay: BRD4 (BD1) bromodomain binding, HTRF; conditions: 2 h incubation at r.t.
measure: IC50
Numeric answer plus unit only.

Here is how some molecules turned out for IC50.
CCS(=O)(=O)Cc1ccc2c(c1)-c1cn(C)c(=O)cc1CN=C2c1ccc(F)cc1 [Compound 4009]    6 nM
CC(C)NC(=O)C[C@@H]1N=C(c2ccc(Cl)cc2)c2ccccc2-c2cn(C)c(=O)cc21 [Compound 4032]    3 nM
CCS(=O)(=O)Cc1ccc2c(c1)-c1cn(C)c(=O)cc1[C@H](C)N=C2c1ccncc1 [Compound 4105]    2 nM
CCS(=O)(=O)Nc1cc2c(cc1F)C(c1ccc(F)cc1)=NN(C)c1cc(=O)n(C)cc1-2 [Compound 4092]    1 nM
CCS(=O)(=O)Cc1cc2c(cc1Cl)C(c1ccc(F)cc1)=N[C@@H](C)c1cc(=O)n(C)cc1-2 [Compound 4086]    2 nM

Next:
**Query** Which IC50 is listed for CCNC(=O)C[C@@H]1N=C(c2ccc(Cl)cc2)c2ccccc2-c2cn(C)c(=O)cc21 [Compound 4016] ?
**Result** 3 nM

====

tested on: MV-4-11 cells; assay: Inhibitory effect on MV-4-11 cells (CellTiter-Glo); assay type: cell-based; conditions: Homo sapiens, MV4-11; 72 hours, CellTiter-Glo; read-out: MV-4-11
Item-by-item account of IC50
Field: numeric (nM). Do not append units.

Here is how some compounds turned out for IC50.
C[C@@H]1N=C(c2ccc(F)cc2)c2cc(Cl)c(N)cc2-c2cn(C)c(=O)cc21    35
CCS(=O)(=O)Cc1ccc2c(c1)-c1cn(C)c(=O)cc1[C@H](CCO)N=C2c1ccc(F)cc1    26
Cn1cc2c(cc1=O)[C@H](CC(N)=O)N=C(c1ccc(Cl)cc1)c1ccccc1-2    10
CCS(=O)(=O)Nc1cc2c(cc1F)C(c1ccc(F)cc1)=N[C@@H](C)c1cc(=O)n(C)cc1-2    1
CCS(=O)(=O)Cc1cc2c(cn1)C(c1ccc(Cl)cc1)=NCc1cc(=O)n(C)cc1-2    128

**Query** Write down the reported IC50 of C[C@@H]1N=C(c2ccc(F)cc2)c2cc(F)c(NS(C)(=O)=O)cc2-c2cn(C)c(=O)cc21 , test system: MV-4-11 cells.
**Result** 2

**Query** Write down the reported IC50 of Cn1cc2c(c1C#N)CC(=O)N(c1ccc(F)cc1)c1ccc(CS(C)(=O)=O)cc1-2 , test system: MV-4-11 cells.
**Result** 1550

**Query** Write down the reported IC50 of CCNC(=O)C[C@@H]1N=C(c2ccc(F)cc2)c2cc(OC)ccc2-c2cn(C)c(=O)cc21 , test system: MV-4-11 cells.
**Result** 9

**Query** Write down the reported IC50 of CC(C)S(=O)(=O)Cc1ccc2c(c1)-c1cn(C)c(=O)cc1[C@H](C)N=C2c1ccc(F)cc1 , test system: MV-4-11 cells.
**Result** 7

**Query** Write down the reported IC50 of C[C@@H]1N=C(c2ccc(Cl)cc2)c2ccccc2-c2cn(C)c(=O)cc21 , test system: MV-4-11 cells.
**Result** 54

**Query** Write down the reported IC50 of CCS(=O)(=O)Cc1cc2c(cc1OC)C(c1ccc(F)cc1)=NCc1cc(=O)n(C)cc1-2 , test system: MV-4-11 cells.
**Result** 49

**Query** Write down the reported IC50 of C[C@@H]1N=C(c2ccc(F)cc2)c2ccc(CS(=O)(=O)C(F)(F)F)cc2-c2cn(C)c(=O)cc21 , test system: MV-4-11 cells.
**Result** 8

**Query** Write down the reported IC50 of CCS(=O)(=O)Cc1cc2c(cc1F)C(c1ccc(F)cc1)=N[C@@H](C)c1cc(=O)n(C)cc1-2 , test system: MV-4-11 cells.
**Result** 4
